A collection of binders and their measured EC50
# Assayed System: RSV A2 pre-F (RSV A2)
# Protocol Details: ELISA
Number in µg/mL, nothing else.

The examples below pair each entry with its known result.
| Binder | Measurement Unit | EC50 |
| --- | --- | --- |
| F6-65 (antibody, V domains shown) VH: QVQLVESGGGLVQPGDSLRLSCAASGFTFKSYGLHWVRQAPGKGLEWVAGLSYDGFSGYYADSVKGRFTVSRDNSKNTLYLHINSLRSEDTSIYYCARGGDGEIFSWIGYFYYMDVWGKGTTVTVFS VL: QSALTQPASVSGSPGQSITISCSGTTNDVGGYDYVSWYQHHPGKAPKLLIYDVSQRPSGVSSRFSGSKSGNTASLTISGLQTDDEAHYYCSSYTITNTLKFGGGTTLTVL | µg/mL | 0.00998 |
| F6-88 (antibody, V domains shown) VH: QVQLVQSGAEVKKPGASVRVSCGASGNSFTRHGFSWVRQAPGQGLEWIGLISAHKSNTIYAQKFQGRVTVTTDTSTSTAYMELRSLRSDDTAVYYCVRDVTVVTDVGSGYDFPMDVWGQGTTVTVSS VL: QSVLTQSPSASGTPGQRVTISCSGSNSNIGGDYVHWYQQVPGTAPRLLIYNTNQRPSGVPDRFSGSKSGTSGSLAISGLRSEDEADYYCATWDDSLNGWVFGGGTKLTVL | µg/mL | 0.0169 |
| F6-27 (antibody, V domains shown) VH: QEQLMESGGDVVRPGTSLTLSCKASGFAFRSHALHWVRQAPGKGLEWVSVISYDGGHTNSADSLEGRFTVSRDNSKNILYLQMNSLRTEDTAVYFCARSEGSYRSWPGYFYYMDVWGNGTTVTVSS VL: QSALTQPASVSGSPGQSITISCIGTSSDVGGYYYVSWYQQHPGRAPKLIIFDVTDRPSGVSSRFSGSQSGNTASLTISGLQPEDEADYYCNSYSSSTIPYVFGSGTKVTVL | µg/mL | 0.00987 |
| F6-49 (antibody, V domains shown) VH: QVQLVESGGGVVLPGTSLTLSCAASGFTFRHYAIHWVRQTPGGGLEWVAALPYDGSTKYFAESVKDRFTIYRDNSQAAAFLHMSSLTPGDTALYYCARSTYSYEYSFLGYFYYMDVWGRGTSVTVSS VL: QSALTQPASVSGSPGQSISISCTGTSRDVGAYTYISWSQQHTGQAPKLLIYDVSERPSGVSDRFSGSKTGDTASLAISGLQAEDEAVYYCSSYTDSNTVVFGGGTKVTVL | µg/mL | 0.0104 |

Please look at the following binder next.
Input line: Request the reported EC50 associated with F6-37 (antibody, V domains shown) VH: QVHLVESGGNVVHPGTSLSLSCAGSGFTFKSHAIHWVRQAPGRGLEWVAFVPYDGATNYYADSLKGRFTVSRDNSRNTVSLHMNRLEGQDTAVYFCARGATSGSYSFLGYNYYMDVWGRGTTVTVSS VL: QSALTQPASVSGSPGQSITISCTGTSSDVGAYTYVSWYQQLPGKAPKLLLFDVTDRPSGVAHRFSGSKSGNTASLTISGLQAEDEAEYYCSSYTDRNTLVFGGGTKLTVL
Output line: 0.0117

Reference for the values: patent US20260327294
